FYI, the data here is from ChEMBL document CHEMBL4507287.

# study system: UniProtKB P28223
# Sequence (P28223 whole entry): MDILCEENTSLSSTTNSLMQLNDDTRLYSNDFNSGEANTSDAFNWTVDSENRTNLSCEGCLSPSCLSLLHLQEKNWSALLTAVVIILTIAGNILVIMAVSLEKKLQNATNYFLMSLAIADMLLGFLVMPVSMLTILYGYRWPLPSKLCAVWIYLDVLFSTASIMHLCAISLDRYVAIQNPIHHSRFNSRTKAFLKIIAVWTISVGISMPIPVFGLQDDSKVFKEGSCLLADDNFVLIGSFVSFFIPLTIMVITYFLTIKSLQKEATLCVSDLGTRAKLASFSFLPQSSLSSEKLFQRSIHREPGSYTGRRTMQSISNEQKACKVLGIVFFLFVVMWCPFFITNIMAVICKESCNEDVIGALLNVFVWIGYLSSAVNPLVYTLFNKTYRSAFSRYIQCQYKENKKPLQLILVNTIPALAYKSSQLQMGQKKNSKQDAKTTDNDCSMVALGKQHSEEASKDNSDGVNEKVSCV
measurement kind: Ki (µM)
Give bare numbers, in µM.

Ki for CC(=O)c1c(NS(C)(=O)=O)c2cc(-c3ccc(Cl)cc3)c(-c3ccc(Cl)cc3Cl)nc2n(C)c1=O [MRL-CB1-NC] is 1.81

====

# study system: 5-hydroxytryptamine receptor 2C (Homo sapiens, UniProt P28335)
# Sequence (P28335 whole entry): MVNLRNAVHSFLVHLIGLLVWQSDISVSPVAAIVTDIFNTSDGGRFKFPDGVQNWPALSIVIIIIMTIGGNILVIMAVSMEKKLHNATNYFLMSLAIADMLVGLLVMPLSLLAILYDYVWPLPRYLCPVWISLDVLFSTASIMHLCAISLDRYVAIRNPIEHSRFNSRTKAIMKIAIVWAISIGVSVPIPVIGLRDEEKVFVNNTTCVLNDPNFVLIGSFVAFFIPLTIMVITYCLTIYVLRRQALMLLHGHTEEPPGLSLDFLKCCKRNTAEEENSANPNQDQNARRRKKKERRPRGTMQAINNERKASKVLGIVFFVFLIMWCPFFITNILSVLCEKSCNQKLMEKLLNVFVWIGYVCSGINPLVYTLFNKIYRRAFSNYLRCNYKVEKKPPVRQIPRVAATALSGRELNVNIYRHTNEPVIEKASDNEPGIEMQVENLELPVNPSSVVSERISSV
# assay method text: GPCRScan assay: inhibition of 5-HT2C
# Design: radioligand conc. used [nm] 1.0 – 2.5, parental cells HEK T
measurement kind: pKi
Numbers only, as −log10 of the molar value.

Memo: "CC(=O)c1c(NS(C)(=O)=O)c2cc(-c3ccc(Cl)cc3)c(-c3ccc(Cl)cc3Cl)nc2n(C)c1=O" , reported pKi: 7.66

====

Target protein (sequence): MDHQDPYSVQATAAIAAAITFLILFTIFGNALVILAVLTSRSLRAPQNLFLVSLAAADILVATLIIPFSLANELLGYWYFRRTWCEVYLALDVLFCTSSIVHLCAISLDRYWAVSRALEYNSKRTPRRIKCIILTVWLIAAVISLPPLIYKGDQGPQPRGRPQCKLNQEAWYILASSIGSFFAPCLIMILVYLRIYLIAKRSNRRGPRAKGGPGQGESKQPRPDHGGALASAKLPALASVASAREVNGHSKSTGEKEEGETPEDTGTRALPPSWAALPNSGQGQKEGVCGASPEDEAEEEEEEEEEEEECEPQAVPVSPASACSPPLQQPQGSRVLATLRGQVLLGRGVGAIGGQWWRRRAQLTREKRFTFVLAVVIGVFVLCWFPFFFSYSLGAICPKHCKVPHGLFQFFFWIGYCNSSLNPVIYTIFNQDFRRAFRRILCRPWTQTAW
measurement kind: pKi
Answers are plain numbers, as −log10 of the molar value.

// pKi value for "CC(=O)c1c(NS(C)(=O)=O)c2cc(-c3ccc(Cl)cc3)c(-c3ccc(Cl)cc3Cl)nc2n(C)c1=O" : 5.77

====

# study system: Sigma non-opioid intracellular receptor 1 (Homo sapiens, UniProt Q99720)
# Sequence (Q99720 whole entry): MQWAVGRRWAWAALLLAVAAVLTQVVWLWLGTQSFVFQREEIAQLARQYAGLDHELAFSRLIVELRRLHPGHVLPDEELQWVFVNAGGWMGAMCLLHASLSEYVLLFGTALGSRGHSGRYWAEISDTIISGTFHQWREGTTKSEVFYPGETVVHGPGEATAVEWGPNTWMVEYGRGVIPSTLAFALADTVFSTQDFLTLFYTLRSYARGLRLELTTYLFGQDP
# assay method text: GPCRScan assay: inhibition of Sigma 1
measurement kind: Ki
Please append the unit to your numeric answer.

// Ki lookup, compound = CC(=O)Nc1c(C(C)=O)c(=O)n(C)c2nc(-c3ccc(Cl)cc3Cl)c(-c3ccc(Cl)cc3)cc12 [NAPHTHYRIDINONE] , result: 1160 nM

====

Target sequence: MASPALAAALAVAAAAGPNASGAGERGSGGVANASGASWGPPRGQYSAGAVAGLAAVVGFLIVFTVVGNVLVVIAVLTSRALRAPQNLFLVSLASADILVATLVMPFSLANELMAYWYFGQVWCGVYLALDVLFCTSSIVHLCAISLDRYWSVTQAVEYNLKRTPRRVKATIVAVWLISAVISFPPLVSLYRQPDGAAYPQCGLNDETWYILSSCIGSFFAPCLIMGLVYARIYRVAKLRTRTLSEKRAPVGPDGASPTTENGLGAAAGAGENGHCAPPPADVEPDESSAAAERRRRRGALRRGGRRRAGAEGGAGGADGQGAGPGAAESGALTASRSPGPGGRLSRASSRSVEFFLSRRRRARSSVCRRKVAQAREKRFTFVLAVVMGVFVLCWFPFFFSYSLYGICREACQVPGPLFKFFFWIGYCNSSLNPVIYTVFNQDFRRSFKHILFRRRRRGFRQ
measurement kind: pKi
Give bare numbers, as −log10 of the molar value.

Sure, the documented pKi for "CC(=O)c1c(NS(C)(=O)=O)c2cc(-c3ccc(Cl)cc3)c(-c3ccc(Cl)cc3Cl)nc2n(C)c1=O" is 5.00

====

# study system: Delta-type opioid receptor (Homo sapiens, UniProt P41143)
# Sequence (P41143 whole entry): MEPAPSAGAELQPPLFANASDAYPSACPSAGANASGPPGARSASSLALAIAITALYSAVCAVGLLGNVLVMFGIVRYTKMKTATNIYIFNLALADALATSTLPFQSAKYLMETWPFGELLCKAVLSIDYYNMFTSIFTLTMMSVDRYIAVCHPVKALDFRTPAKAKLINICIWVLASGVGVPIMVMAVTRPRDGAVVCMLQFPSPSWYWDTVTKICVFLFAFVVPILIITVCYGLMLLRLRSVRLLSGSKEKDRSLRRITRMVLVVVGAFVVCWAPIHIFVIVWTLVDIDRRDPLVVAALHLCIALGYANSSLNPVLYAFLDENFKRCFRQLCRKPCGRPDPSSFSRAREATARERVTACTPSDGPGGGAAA
# assay method text: GPCRScan assay: inhibition of DOR
measurement kind: Ki (nM)
Answers are plain numbers, in nM.

// Ki value for "CC(=O)c1c(NS(C)(=O)=O)c2cc(-c3ccc(Cl)cc3)c(-c3ccc(Cl)cc3Cl)nc2n(C)c1=O" : 1410
